system: E. coli TESEC Alr+ wild-type control; assay: growth (OD600 after 10 h); higher = more growth (less inhibition); settings: compound 0.1 mM; raw OD600 reference: median of DMSO wells 0.49, cell-free background 0.052
Where a name gives a salt, the structure may show the parent alone.
ASSAY READOUT: growth
// print number alone

Query: Entry under review: CN[C@@H]1[C@H](O)[C@H](NC)[C@H]2O[C@@]3(O)C(=O)C[C@@H](C)O[C@H]3O[C@@H]2[C@H]1O [Spectinomycin dihydrochloride] . Reported growth?
Result: 0.228

Query: Entry under review: Nc1ncn(C2OC(CO)C(O)C2O)c(=O)n1 (stereo not drawn) . Reported growth?
Result: 0.479

Query: Entry under review: CC(C)(C)CC(C)(C)c1ccc(OCOCCOCCO)c(Cc2cc(C(C)(C)CC(C)(C)C)cc(Cc3cc(C(C)(C)CC(C)(C)C)ccc3OCOCCOCCO)c2OCOCCOCCO)c1 . Reported growth?
Result: 0.459

Query: Entry under review: CNCCC(Oc1ccc(C(F)(F)F)cc1)c1ccccc1 (stereo not drawn) [Fluoxetine hydrochloride] . Reported growth?
Result: 0.118

Query: Entry under review: COc1cc(N)c(Cl)cc1C(=O)NC1CCN(Cc2ccccc2)CC1 [Clebopride maleate] . Reported growth?
Result: 0.474

Query: Entry under review: NCC[C@H](O)C(=O)N[C@@H]1C[C@H](N)[C@@H](O[C@H]2O[C@H](CN)[C@@H](O)[C@H](O)[C@H]2O)[C@H](O)[C@H]1O[C@H]1O[C@H](CO)[C@@H](O)[C@H](N)[C@H]1O [Amikacin hydrate] . Reported growth?
Result: 0.0539

Query: Entry under review: CCN(CC)C(=S)SSC(=S)N(CC)CC . Reported growth?
Result: 0.443

Query: Entry under review: O=C(OCC(O)CO)c1ccccc1Nc1ccnc2cc(Cl)ccc12 (stereo not drawn) [Glafenine hydrochloride] . Reported growth?
Result: 0.374

Query: Entry under review: CC(C)(C)c1ccc(C(O)CCCN2CCC(C(O)(c3ccccc3)c3ccccc3)CC2)cc1 (stereo not drawn) . Reported growth?
Result: 0.0576

Query: Entry under review: N[C@@H]1CCCCN(c2c(F)cc3c(=O)c(C(=O)O)cn(C4CC4)c3c2Cl)C1 [Besifloxacin hydrochloride] . Reported growth?
Result: 0.0537

Query: Entry under review: O=C(O)CCNC(=O)c1ccc(/N=N/c2ccc(O)c(C(=O)O)c2)cc1 [Balsalazide Sodium] . Reported growth?
Result: 0.465

Query: Entry under review: CCCCCCCN(CC)CCCC(O)c1ccc(NS(C)(=O)=O)cc1 (stereo not drawn) [Ibutilide fumarate] . Reported growth?
Result: 0.55

Query: Entry under review: CC(C)Oc1ccc2c(=O)c(-c3ccccc3)coc2c1 . Reported growth?
Result: 0.464

Query: Entry under review: Cc1cn[nH]c1 [Fomepizole] . Reported growth?
Result: 0.554

Query: Entry under review: C=CCN1CCCC1CNC(=O)c1cc2nn[nH]c2cc1OC (stereo not drawn) [Alizapride HCl] . Reported growth?
Result: 0.536

Query: Entry under review: NC(=O)c1ncn([C@@H]2O[C@H](CO)[C@@H](O)[C@H]2O)n1 . Reported growth?
Result: 0.54

Query: Entry under review: CC(C)NCC(O)COc1cccc2[nH]ccc12 (stereo not drawn) . Reported growth?
Result: 0.474

Query: Entry under review: NS(=O)(=O)c1cc(C(=O)O)cc(N2CCCC2)c1Oc1ccccc1 [Piretanide] . Reported growth?
Result: 0.444

Query: Entry under review: CN(C)[C@@H]1C(=O)C(C(N)=O)=C(O)[C@@]2(O)C(=O)C3=C(O)c4c(O)ccc(Cl)c4[C@@H](O)[C@H]3C[C@@H]12 [Demeclocycline hydrochloride] . Reported growth?
Result: 0.0509

Query: Entry under review: CCc1cccc(CC)c1NC(=O)CN(CC(=O)O)CC(=O)O . Reported growth?
Result: 0.603

Query: Entry under review: c1ccc([C@H]2CN3CCSC3=N2)cc1 [Levamisole hydrochloride] . Reported growth?
Result: 0.511

Query: Entry under review: CC(=O)Oc1ccccc1C(=O)Oc1ccccc1C(=O)O . Reported growth?
Result: 0.449

Query: Entry under review: Cc1cc(NS(=O)(=O)c2ccc(N)cc2)no1 . Reported growth?
Result: 0.45

Query: Entry under review: CC(=O)OCC(=O)[C@@]12OC(C)(C)O[C@@H]1C[C@H]1[C@@H]3C[C@H](F)C4=CC(=O)C=C[C@]4(C)[C@@]3(F)[C@@H](O)C[C@@]12C [Fluocinonide] . Reported growth?
Result: 0.499

Query: Entry under review: COc1ccc(/C=C/C(=O)Nc2ccccc2C(=O)O)cc1OC . Reported growth?
Result: 0.452

Query: Entry under review: Cc1c(C)c2c(c(C)c1O)CCC(C)(C(=O)O)O2 (stereo not drawn) . Reported growth?
Result: 0.579

Query: Entry under review: CC1(C)O[C@@H]2[C@@H](CO[C@@]3(COS(N)(=O)=O)OC(C)(C)O[C@@H]23)O1 [Topiramate] . Reported growth?
Result: 0.541

Query: Entry under review: CCOC(=O)C(C)(C)Oc1ccc(Cl)cc1 [Clofibrate] . Reported growth?
Result: 0.609

Query: Entry under review: Cc1c(Nc2ncccc2C(=O)O)cccc1C(F)(F)F . Reported growth?
Result: 0.373

Query: Entry under review: Cc1ccc2c(c1)c1c3n2CCNC3CCC1 (stereo not drawn) [Pirlindole mesylate] . Reported growth?
Result: 0.485

Query: Entry under review: O=c1[nH]cnc2c1ncn2[C@H]1CC[C@@H](CO)O1 . Reported growth?
Result: 0.503

Query: Entry under review: CN(C)CC/C=C1/c2ccccc2Sc2ccc(Cl)cc21 [Chlorprothixene hydrochloride] . Reported growth?
Result: 0.157

Query: Entry under review: CC(C)NCC(O)c1cc(O)cc(O)c1 (stereo not drawn) [Metaproterenol sulfate, orciprenaline sulfate] . Reported growth?
Result: 0.635
